Hey, just so you know, these numbers are from the supplement of paper PMC8728848.

systemName: Neu5Ac(a2-3)Gal(b1-3)[Fuc(a1-4)]GlcNAc(b1-3)Gal(b1-3)[Fuc(a1-4)]GlcNAc
test: glycan array binding signal (z-score within array); higher = stronger binding
assaySetup: glycan notation: IUPAC condensed, linker removed
The full list was thinned out, with the strongest signals kept by preference.
measuredParameter: glycan array binding signal (z-score)
Hey, just send me the number, nothing else.

[[record]]
binder = "EULS2 M2 (Oryza sativa) (protein) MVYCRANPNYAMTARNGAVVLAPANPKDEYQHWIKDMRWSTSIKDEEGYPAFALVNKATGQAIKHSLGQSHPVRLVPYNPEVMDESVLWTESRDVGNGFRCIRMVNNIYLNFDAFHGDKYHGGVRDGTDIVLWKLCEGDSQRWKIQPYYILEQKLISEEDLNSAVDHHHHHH"
testvalue = 0.084


Ask: # get_value(readout='glycan array binding signal (z-score)', item= Protectin (Homo sapiens), P13987 (protein) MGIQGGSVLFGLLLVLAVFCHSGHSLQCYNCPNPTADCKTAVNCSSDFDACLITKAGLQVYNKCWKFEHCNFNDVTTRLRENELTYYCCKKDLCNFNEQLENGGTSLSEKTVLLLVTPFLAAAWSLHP )
Result: 3.13

Ask: # get_value(readout='glycan array binding signal (z-score)', item= EEA (Euonymus europaeus) (protein) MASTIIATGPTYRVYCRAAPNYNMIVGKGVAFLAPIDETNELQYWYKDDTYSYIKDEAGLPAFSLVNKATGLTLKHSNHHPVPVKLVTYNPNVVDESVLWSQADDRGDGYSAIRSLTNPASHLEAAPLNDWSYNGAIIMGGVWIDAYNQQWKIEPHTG )
Result: -0.246

Ask: # get_value(readout='glycan array binding signal (z-score)', item= Gal 10 (Homo sapiens), Q05315 (protein) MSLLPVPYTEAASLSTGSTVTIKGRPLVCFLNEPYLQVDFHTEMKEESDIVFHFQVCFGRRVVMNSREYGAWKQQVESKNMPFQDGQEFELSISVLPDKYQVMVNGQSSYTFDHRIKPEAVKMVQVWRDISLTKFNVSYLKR )
Result: 1.14

Ask: # get_value(readout='glycan array binding signal (z-score)', item= SSL (Salmo salar) (protein) TGAKGAEEGVVPAETRNQCPTGWFQFGSRCFMFVETARSWPLAERHCVSLGANLASVHSSADDQFLQAIAGCKTGAFSTTWIGGFDAVQDRLWFWSDGSEFDYQNWAKGEPNNSGGREPCIVINWGDEYRWNDIKCGNSFPSVCSKRICEIQKN )
Result: -0.086

Ask: # get_value(readout='glycan array binding signal (z-score)', item= Erv46-EDTA (Saccharomyces cerevisiae), P39727 (protein) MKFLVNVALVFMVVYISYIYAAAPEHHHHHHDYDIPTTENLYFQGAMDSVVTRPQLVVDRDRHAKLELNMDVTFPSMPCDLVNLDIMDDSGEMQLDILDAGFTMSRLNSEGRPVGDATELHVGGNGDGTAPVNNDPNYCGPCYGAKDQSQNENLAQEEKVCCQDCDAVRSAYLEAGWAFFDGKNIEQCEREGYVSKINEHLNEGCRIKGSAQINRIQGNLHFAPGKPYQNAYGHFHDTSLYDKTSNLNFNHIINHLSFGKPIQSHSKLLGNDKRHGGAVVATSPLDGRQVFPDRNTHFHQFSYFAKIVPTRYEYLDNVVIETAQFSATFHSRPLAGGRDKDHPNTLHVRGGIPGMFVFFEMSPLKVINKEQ )
Result: -0.483
